Molecular target: human μ-opiate receptor (Homo sapiens)
Sequence (P35372 whole entry): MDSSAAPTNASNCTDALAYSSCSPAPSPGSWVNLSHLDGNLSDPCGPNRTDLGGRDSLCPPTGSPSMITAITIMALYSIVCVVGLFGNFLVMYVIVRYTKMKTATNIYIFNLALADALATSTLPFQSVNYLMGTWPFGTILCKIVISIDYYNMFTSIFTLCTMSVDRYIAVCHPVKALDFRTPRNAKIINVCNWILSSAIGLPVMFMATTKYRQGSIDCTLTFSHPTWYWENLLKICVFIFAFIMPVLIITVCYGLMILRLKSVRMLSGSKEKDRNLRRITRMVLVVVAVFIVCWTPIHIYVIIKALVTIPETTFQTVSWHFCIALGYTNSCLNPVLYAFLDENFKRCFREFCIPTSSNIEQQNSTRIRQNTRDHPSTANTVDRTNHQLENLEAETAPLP
Experiment: Affinity for the human μ-opiate receptor ([3H]-naloxone displacement, SPA, CHO-K1 membrane preparation)
Format: binding
Settings: 1 µM
reportedProperty: μ-Opioid receptor, % inhibition [1 μM]

// known answers, use as guide
CN(C)C(c1ccccc1)C1CCC(NC(=O)c2cccs2)CC1 (single isomer, unassigned)    81%
Cc1c(S(=O)(=O)c2ccc(Cl)cc2)csc1C(=O)NC1CCC(C(c2ccccc2)N(C)C)CC1 (stereo not shown)    80%
CCC(C)C(=O)NCC1CCC(C(c2cccc(F)c2)N(C)C)CC1 (single isomer, unassigned)    83%

Could you now consider this next compound?
Give its μ-Opioid receptor, % inhibition [1 μM] value. Item: CN(C)C(c1ccccc1)C1CCC(CNC(=O)c2cccnc2Oc2ccc(Cl)cc2)CC1 (single isomer, unassigned) 83%
